The reported measurements were obtained from patent US12150995B2.

Each record here notes measured DC50.
- ASSAYED_SYSTEM: IRAK4 (Homo sapiens, UniProt Q9NWZ3)
- Construct: endogenous in cells; host or cells: OCI-LY10
- Sequence (Q9NWZ3 1-460): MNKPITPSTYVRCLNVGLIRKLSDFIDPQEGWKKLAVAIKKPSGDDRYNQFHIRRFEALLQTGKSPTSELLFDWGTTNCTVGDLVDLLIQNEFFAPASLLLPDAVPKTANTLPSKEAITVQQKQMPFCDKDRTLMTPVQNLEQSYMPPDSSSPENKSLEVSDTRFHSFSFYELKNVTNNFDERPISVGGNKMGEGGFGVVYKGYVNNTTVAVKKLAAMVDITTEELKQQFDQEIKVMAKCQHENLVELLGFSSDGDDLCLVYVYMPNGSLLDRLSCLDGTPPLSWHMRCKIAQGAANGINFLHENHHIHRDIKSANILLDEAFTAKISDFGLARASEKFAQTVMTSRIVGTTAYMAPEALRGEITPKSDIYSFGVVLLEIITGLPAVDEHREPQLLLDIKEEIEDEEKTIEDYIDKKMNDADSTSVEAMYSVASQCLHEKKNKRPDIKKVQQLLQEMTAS
- ASSAY_REMARKS: IRAK4 MSD Degradation in OCI-LY10
- Format: cell-based
- CONDITION_INFO: OCI-LY10 cells, Meso Scale Discovery, incubated 4 to 24 hours

Example entries and their recorded answers appear below.
COMPOUND: Cn1c(=O)n(C2CCC(=O)NC2=O)c2cccc(C3CCN(C[C@H]4CC[C@H](n5cc6cc(NC(=O)c7cccc(C(F)(F)F)n7)ncc6n5)CC4)CC3)c21 (stereo partly shown)
DC50: < 0.01 µM
//
COMPOUND: Cn1c(=O)n(C2CCC(=O)NC2=O)c2ccc(Cl)c(C3CCN(C[C@H]4C[C@H](n5cc6cc(NC(=O)c7cccc(C(F)(F)F)n7)c(Cl)cc6n5)C4)CC3)c21 (stereo partly shown)
DC50: 0.05 to 0.1 µM
//
COMPOUND: COc1cc2nc([C@H]3CC[C@H](CN(C)CCCNc4cccc5c4C(=O)N(C4CCC(=O)NC4=O)C5=O)CC3)sc2cc1NC(=O)c1cncc(C)c1 (stereo partly shown)
DC50: > 0.2 µM
//
COMPOUND: COc1cc2nn([C@H]3CC[C@H](CN4[C@@H]5C[C@H]4CN(c4cccc6c4n(C)c(=O)n6C4CCC(=O)NC4=O)C5)CC3)cc2cc1NC(=O)c1cccc(C(F)(F)F)n1 (stereo partly shown)
DC50: < 0.01 µM
//
COMPOUND: COc1cc2nn([C@H]3CC[C@H](CN(C)C4CCN(c5cccc6c5n(C)c(=O)n6C5CCC(=O)NC5=O)CC4)CC3)cc2cc1NC(=O)c1cncc(F)c1 (stereo partly shown)
DC50: < 0.01 µM

Input: Any idea what DC50 was measured for COc1cc2nn([C@H]3CC[C@H](CN(C)C4CCN(c5cccc6c5n(C)c(=O)n6C5CCC(=O)NC5=O)CC4)CC3)cc2cc1NC(=O)c1cncc(C#N)c1 (stereo partly shown) ?
Output: < 0.01 µM

Input: Another compound: COc1cc2nc([C@H]3CC[C@H](CN(C)CCCCNc4cccc5c4C(=O)N(C4CCC(=O)NC4=O)C5=O)CC3)sc2cc1NC(=O)c1cccc(C)n1 (stereo partly shown)
Output: 0.01 to 0.05 µM

Input: Another compound: CN(C[C@H]1CC[C@H](n2cc3cc(NC(=O)C4CC4)c(C(C)(C)O)cc3n2)CC1)C1CCN(Cc2cccc3c2n(C)c(=O)n3C2CCC(=O)NC2=O)CC1 (stereo partly shown)
Output: > 0.2 µM

Input: Another compound: CN(CCn1cc2cc(NC(=O)c3cnn4cccnc34)c(F)cc2n1)C1CCN(c2cccc3c2n(C)c(=O)n3C2CCC(=O)NC2=O)CC1 (stereo not shown)
Output: > 0.2 µM

Input: Another compound: COc1cc2nn([C@H]3CC[C@H](CN4CCC(c5cccc6c5n(C)c(=O)n6C5CCC(=O)NC5=O)CC4(C)C)CC3)cc2cc1NC(=O)c1cccc(C(F)(F)F)n1 (stereo partly shown)
Output: < 0.01 µM

Input: Another compound: COc1cc2nc([C@H]3CC[C@H](CN(C)CCNc4cccc5c4C(=O)N(C4CCC(=O)NC4=O)C5=O)CC3)sc2cc1NC(=O)c1cncc(F)c1 (stereo partly shown)
Output: > 0.2 µM

Input: Another compound: COc1cc2c(cc1NC(=O)c1cccc(C(F)(F)F)n1)cc([C@H]1CC[C@H](CN(C)C3CCN(c4cccc5c4n(C)c(=O)n5C4CCC(=O)NC4=O)CC3)CC1)n2C (stereo partly shown)
Output: > 0.2 µM

Input: Another compound: CC(C)Nc1cc(-n2ccc3cc(C#N)cnc32)ncc1C(=O)N[C@H]1CC[C@H](CN(C)C2CCN(c3cccc4c3n(C)c(=O)n4C3CCC(=O)NC3=O)CC2)CC1 (stereo partly shown)
Output: < 0.01 µM

Input: Another compound: COc1cc2nn([C@H]3CC[C@H](CN4CCN(c5cccc6c5n(C)c(=O)n6C5CCC(=O)NC5=O)C[C@@H]4C)CC3)cc2cc1NC(=O)c1cccc(C(F)(F)F)n1 (stereo partly shown)
Output: 0.01 to 0.05 µM
